experiment-description: Solubilities of lamotrigine in various non-aqueous solvents and purified water
Format: physicochemical
condition-details: organic solvent or mixture; solvent PEG 400
measured-property: solubility

>>> recorded_measurement("Nc1nnc(-c2cccc(Cl)c2Cl)c(N)n1")
"> 30 mg/mL"

----------
experiment-description: Solubilities of lamotrigine in various non-aqueous solvents and purified water
Format: physicochemical
condition-details: organic solvent or mixture; solvent Propylene Glycol
measured-property: solubility (mg/mL)

>>> recorded_measurement("Nc1nnc(-c2cccc(Cl)c2Cl)c(N)n1")
40.2

----------
experiment-description: Solubilities of lamotrigine in various non-aqueous solvents and purified water
Type: physicochemical
condition-details: solvent Purified water
measured-property: solubility

>>> recorded_measurement("Nc1nnc(-c2cccc(Cl)c2Cl)c(N)n1")
"310 µg/mL"

// provenance: patent US12661360B2
